Below, each entry is listed with its recorded melting point.

molecule=CS(=O)(=O)c1ccc(-c2oc3ccccc3c(=O)c2-c2ccccn2)cc1 property_name="melting point" recorded_measurement="203 to 204 °C"
molecule="COCC1CN(c2cccnc2)C(=O)O1 (racemic)" property_name="melting point" recorded_measurement="65 to 66 °C"
molecule=CCCCCNC(=O)N(C)c1cccc(-c2ccc(C=C(OCC)C(=O)O)cc2OCCCC)c1 property_name="melting point" recorded_measurement="59 °C"
molecule="NC(=O)N1C(=O)C(C(=O)c2ccco2)c2ncc(Cl)cc21 (stereo unspecified)" property_name="melting point" recorded_measurement="> 250 °C"
molecule=Cc1cc(C)c(CNc2c(C)nn(C)c2NCC(C)(C)C)c(C)c1 property_name="melting point" recorded_measurement="114 to 120 °C"
molecule=Cc1cc(C#N)cc(C(=O)Nc2nc(C)cs2)n1 property_name="melting point" recorded_measurement="211 °C"
molecule=CCn1c(=O)n(O)c(=O)c2c(F)c(F)c(N3CCCC3)c(F)c21 property_name="melting point" recorded_measurement="223 to 225 °C"
molecule=O=C(Nc1ccc(OC(F)(F)F)cc1)N1CCOC(c2ccc(Br)s2)=N1 property_name="melting point" recorded_measurement="139 to 140 °C"

Query: Given the molecule COC(=O)C1(c2c(F)cccc2F)Nc2ccccc2N1Cc1c(F)cccc1F (stereo unspecified) , write its reported melting point.
Result: 185 to 186 °C

Query: Given the molecule Cc1c(C2=CCC(Cc3ccccc3)(N(C)C)CC2)[nH]c2ccc(C(F)(F)F)cc12 (stereo unspecified) , write its reported melting point.
Result: 119 to 120 °C

Query: Given the molecule O=C(NCc1cccnc1)c1cnc(N2CCN(CC3CC3)C2=O)s1 , write its reported melting point.
Result: 190 to 192 °C
